- Study System: human GDP-mannose 4,6-dehydratase (hGMD) (Homo sapiens)
- Construct: purified enzyme, wild type and point variants; homodimer in crystals (two to four homodimers per asymmetric unit); construct borders, tags and host only in supplement
- Sequence (O60547 2-372 limits assumed): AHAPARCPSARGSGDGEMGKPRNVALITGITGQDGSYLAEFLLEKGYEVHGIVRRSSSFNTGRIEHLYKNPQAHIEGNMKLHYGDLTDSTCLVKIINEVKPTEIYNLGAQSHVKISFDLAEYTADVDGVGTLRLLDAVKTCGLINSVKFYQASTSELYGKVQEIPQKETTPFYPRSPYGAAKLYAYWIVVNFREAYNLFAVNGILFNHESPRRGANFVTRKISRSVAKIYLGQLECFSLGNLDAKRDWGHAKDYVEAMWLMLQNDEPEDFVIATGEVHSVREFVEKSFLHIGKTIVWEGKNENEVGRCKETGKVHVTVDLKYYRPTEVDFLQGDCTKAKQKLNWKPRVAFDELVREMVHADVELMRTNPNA
- Method Notes: isothermal titration calorimetry
pKd: −log10 of the molar value.
Observed Property: pKd

| Molecule | Reported Value |
| --- | --- |
| Nc1nc2c(ncn2[C@@H]2O[C@H](COP(=O)(O)OP(=O)(O)O[C@H]3O[C@H](CO)[C@@H](F)[C@H](O)[C@@H]3O)[C@@H](O)[C@H]2O)c(=O)[nH]1 [GDP-4″-deoxy-4″-fluoro-mannose] | 5.80 |
